molecules and their reported LD50
test: Acute toxicity (LD 50); format: in vivo; conditions: mouse, in vivo, ip; male ddy mice, intraperitoneal; read-out: LD 50 (g/kg), Intraperitoneal administration
Value expressed in g/kg; do not type the unit.

{"MOLECULE": "CC(=O)Oc1ccccc1C(=O)O [Aspirin, acetylsalicylic acid]", "LD50, g/kg": 0.76}

Lab note: CC(=O)Oc1ccccc1C(=O)NCc1c(C(C)C)c(=O)n(-c2ccccc2)n1C [AIA] gave LD50 of 3.67

###

Assay: Acute toxicity (LD 50)
Format: in vivo
Conditions: mouse, in vivo; male ddy mice, oral; read-out: LD 50 (g/kg), Oral administration
Experimental: The acute toxicity of AIA was tested using male mice (ddy, body weight 18-25 g), and the dose at which 50% of the animal population were killed (LD 50) was determined.
TEST_READOUT: LD50 (g/kg)
Value expressed in g/kg; do not type the unit.

Lab note: CC(=O)Oc1ccccc1C(=O)O [Aspirin, acetylsalicylic acid] gave LD50 of 11.6

Ref: patent US4310521A
